Cited source for all entries: patent EP4721737A1

- target or system: PKR in ex vivo red blood cells from healthy individuals (Homo sapiens, UniProt P30613)
- Construct: endogenous in cells; host or cells: human red blood cells isolated from fresh peripheral blood of healthy individuals
- Sequence (P30613 whole entry): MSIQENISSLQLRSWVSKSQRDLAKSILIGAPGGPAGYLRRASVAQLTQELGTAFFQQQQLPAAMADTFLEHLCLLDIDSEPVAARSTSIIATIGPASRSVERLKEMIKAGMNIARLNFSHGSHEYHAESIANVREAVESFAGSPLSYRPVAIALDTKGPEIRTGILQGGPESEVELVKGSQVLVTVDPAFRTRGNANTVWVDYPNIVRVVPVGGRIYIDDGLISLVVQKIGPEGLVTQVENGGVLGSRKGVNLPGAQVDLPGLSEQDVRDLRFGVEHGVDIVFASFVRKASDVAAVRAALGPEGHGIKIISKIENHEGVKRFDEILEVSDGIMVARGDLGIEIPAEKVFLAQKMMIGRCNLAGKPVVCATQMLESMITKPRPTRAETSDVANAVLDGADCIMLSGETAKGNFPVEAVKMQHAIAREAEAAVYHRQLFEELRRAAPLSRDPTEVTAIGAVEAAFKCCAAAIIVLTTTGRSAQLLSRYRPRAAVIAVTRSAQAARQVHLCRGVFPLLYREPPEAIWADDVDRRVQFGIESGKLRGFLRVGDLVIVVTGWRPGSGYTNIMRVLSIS
- test details: ex vivo pyruvate kinase (PKR) activity experiment, red blood cells of healthy individuals
- Type: cell-based
- test conditions: 3 hours co-cultivation
reported metric: AC50

Example compounds with recorded AC50:
# compound, reported
measured = [
    ("O=C(C(CO)c1ccc(F)cc1)N1CC(=C2CN(S(=O)(=O)c3ccc(OC(F)F)cc3)C2)C1 (stereo not drawn) [Compound 16]", "< 100 nM"),
    ("O=C(C(CO)c1cccnc1)N1CC(=C2CN(S(=O)(=O)c3ccc4ncsc4c3)C2)C1 (stereo not drawn) [Compound 48]", "300 to 1000 nM"),
    ("O=C(N1CC(=C2CN(S(=O)(=O)c3ccc4ncsc4c3)C2)C1)C1(c2ccccc2)CCOCC1 [Compound 29]", "< 100 nM"),
    ("O=C([C@H](CO)c1ccccc1)N1CC(=C2CN(S(=O)(=O)c3cc(F)c4c(c3)OCCO4)C2)C1 [Compound 20]", "300 to 1000 nM"),
    ("CN1CCN(c2cccc(C(O)C(=O)N3CC(=C4CN(S(=O)(=O)c5ccc6ncsc6c5)C4)C3)c2)CC1 (stereo not drawn) [Compound 43]", "101 to 300 nM"),
    ("O=C(C(CO)c1ccc2c(c1)NCCO2)N1CC(=C2CN(S(=O)(=O)c3ccccn3)C2)C1 (stereo not drawn) [Compound 79]", "101 to 300 nM"),
    ("Cc1nc2ccc(S(=O)(=O)N3CC(=C4CN(C(=O)[C@H](CO)c5ccccc5)C4)C3)cc2s1 [Compound 35]", "< 100 nM"),
    ("NC(C(=O)N1CC(=C2CN(S(=O)(=O)c3ccc(OC(F)F)cc3)C2)C1)c1ccc(F)cc1 (stereo not drawn) [Compound 22]", "< 100 nM"),
    ("O=C(C(CO)c1ccccc1)N1CC(=C2CN(S(=O)(=O)c3ccc(OC(F)F)cc3)C2)C1 (stereo not drawn) [Compound 6]", "101 to 300 nM"),
    ("O=C(N1CC(=C2CN(S(=O)(=O)c3ccccn3)C2)C1)C1(c2ccccc2)COC1 [Compound 89]", "< 100 nM"),
]

Challenge: May I ask what AC50 has been recorded for O=C(C(CO)c1ccc(F)cc1)N1CC(=C2CN(S(=O)(=O)c3cnc4c(c3)OCCO4)C2)C1 (stereo not drawn) [Compound 19] ?
Response given: 300 to 1000 nM

Challenge: # get_value(readout='AC50', item= O=C([C@H](CO)c1ccccc1)N1CC(=C2CN(S(=O)(=O)c3ccccn3)C2)C1 [Compound 4] )
Response given: < 100 nM
